target: EGFR(L858R/T790M) (Homo sapiens, UniProt P00533, L858R/T790M); construct: purchased from Carna (GST-a.a. 669-1210); experiment: EGFR biochemical assay (HTRF), IC50 determinations; conditions: EGFR (L858R/T790M) with 90 min pre-incubation; read-out: IC50 (μM) Column B
Sequence (P00533 669-1210 T790M/L858R): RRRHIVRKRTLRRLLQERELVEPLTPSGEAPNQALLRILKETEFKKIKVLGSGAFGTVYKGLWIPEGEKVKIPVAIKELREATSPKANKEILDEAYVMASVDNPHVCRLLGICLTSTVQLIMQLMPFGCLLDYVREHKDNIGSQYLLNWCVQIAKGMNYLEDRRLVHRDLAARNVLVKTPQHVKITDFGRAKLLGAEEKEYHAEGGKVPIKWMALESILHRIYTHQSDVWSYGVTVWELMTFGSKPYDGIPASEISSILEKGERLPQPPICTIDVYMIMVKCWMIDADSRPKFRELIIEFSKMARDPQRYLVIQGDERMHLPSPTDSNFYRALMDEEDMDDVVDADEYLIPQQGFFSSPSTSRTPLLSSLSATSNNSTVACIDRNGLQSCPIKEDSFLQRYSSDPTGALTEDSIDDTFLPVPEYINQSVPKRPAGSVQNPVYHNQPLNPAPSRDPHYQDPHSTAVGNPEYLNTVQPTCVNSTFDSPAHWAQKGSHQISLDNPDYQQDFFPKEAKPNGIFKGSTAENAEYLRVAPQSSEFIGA
MEASURED_QUANTITY: IC50 (µM)
Reply numerically in µM, unit not repeated.

// below: answered compounds
[[record]]
compound = "C=CC(=O)N1CCOCC(n2c(NC(=O)c3cccc(C(F)(F)F)c3)nc3cccc(C)c32)C1 (stereo not drawn) [Example 17-14]"
reading = 0.005

[[record]]
compound = "C=CC(=O)N1CCCCC(n2c(NC(=O)c3cccc(C(F)(F)F)c3)nc3cccc(C(=O)O)c32)C1 (stereo not drawn) [Example 20]"
reading = 0.005


Query: Give a short answer stating reported IC50 for C=CC(=O)N1CCOCC(n2c(NC(=O)c3cccc(C(F)(F)F)c3)nc3cccc(C)c32)C1 (single isomer, unassigned) [Example 21-7A] .
Reply: 0.56

Data origin, for the record: patent US9440957B2
